Target: T1, Human OSM (human, UniProt P13725 26-221)
T1 construct: Recombinant human OSM; also called hOSM; human Oncostatin M
T1 sequence: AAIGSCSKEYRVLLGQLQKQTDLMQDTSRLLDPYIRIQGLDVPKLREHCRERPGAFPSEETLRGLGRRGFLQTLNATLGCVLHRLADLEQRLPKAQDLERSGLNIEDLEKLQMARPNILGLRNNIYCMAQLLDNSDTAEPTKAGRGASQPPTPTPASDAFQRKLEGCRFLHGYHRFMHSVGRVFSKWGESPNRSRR
Assay: SPR (ProteOn XPR36 or Biacore T100), captured supernatant, OSM as analyte; grey cell: 3x decrease in binding
The entries below are paired with their reported Kd.
Report as a plain number; the unit nM is understood.

Below, 3 binders whose answers are already recorded.
Pos 101 Ala (antibody, V domains shown, also called CDRH3 D101>A) VH: EVQLVESGGGLVQPGGSLRLSCAASGFTFSSYAMSWVRQAPGKGLEWVATISDGGSFTYYLDNVRGRFTISRDNAKNSLYLQMNSLRAEDTAVYYCARDVGHTTFWYFAVWGRGTLVTVSS VL: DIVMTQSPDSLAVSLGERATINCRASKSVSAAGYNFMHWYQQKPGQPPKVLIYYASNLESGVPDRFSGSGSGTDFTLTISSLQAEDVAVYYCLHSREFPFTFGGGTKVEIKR: 1.55
Pos 100A Met (antibody, V domains shown, also called CDRH3 F100A>M) VH: EVQLVESGGGLVQPGGSLRLSCAASGFTFSSYAMSWVRQAPGKGLEWVATISDGGSFTYYLDNVRGRFTISRDNAKNSLYLQMNSLRAEDTAVYYCARDVGHTTMWYFDVWGRGTLVTVSS VL: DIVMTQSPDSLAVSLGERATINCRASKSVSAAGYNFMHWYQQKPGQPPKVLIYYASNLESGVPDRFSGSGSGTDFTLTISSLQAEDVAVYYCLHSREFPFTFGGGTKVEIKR: 5.19
Pos 101 Gln (antibody, V domains shown, also called CDRH3 D101>Q) VH: EVQLVESGGGLVQPGGSLRLSCAASGFTFSSYAMSWVRQAPGKGLEWVATISDGGSFTYYLDNVRGRFTISRDNAKNSLYLQMNSLRAEDTAVYYCARDVGHTTFWYFQVWGRGTLVTVSS VL: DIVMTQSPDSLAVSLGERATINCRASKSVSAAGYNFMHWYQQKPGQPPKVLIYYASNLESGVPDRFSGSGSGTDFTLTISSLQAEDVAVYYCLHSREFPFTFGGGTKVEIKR: 1.1

Next binder, please.
// fetch Kd given entry Pos 100C Leu (antibody, V domains shown, also called CDRH3 Y100C>L) VH: EVQLVESGGGLVQPGGSLRLSCAASGFTFSSYAMSWVRQAPGKGLEWVATISDGGSFTYYLDNVRGRFTISRDNAKNSLYLQMNSLRAEDTAVYYCARDVGHTTFWLFDVWGRGTLVTVSS VL: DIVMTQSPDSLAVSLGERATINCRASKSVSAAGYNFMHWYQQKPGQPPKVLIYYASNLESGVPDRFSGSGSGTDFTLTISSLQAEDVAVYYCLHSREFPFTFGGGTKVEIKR 0.424
